- EXPERIMENTAL TARGET: U2AF1-UHM (Homo sapiens)
- Construct: we screened the CCG fragment library from University of Michigan against the U2AF1-UHM domain using the Thermal Shift Assay (TSA)
- METHOD: HTRF assay, inhibition of binding between U2AF1-UHM and U2AF2-ULM
- SETUP CONDITIONS: Fig. 2C; SD of 2 independent experiments in parentheses; read-out: IC50 U2AF1
Assign labels as follows, please: Met for IC50 below 60 µM; Not met for IC50 equal to or exceeding 60 µM.

Task: Please determine if CCn1nc(O)cc1C1(C)CCNCC1 is below 60 µM in terms of IC50.
Output: Not met

Task: Regarding CC(C)n1nc(C2(C)CCNCC2)cc1O , kindly confirm whether its IC50 is beneath 60 µM.
Output: Not met

Task: Dear reviewer, please state whether CCC1(c2cc(O)nn2C)CCNCC1 has IC50 strictly beneath 60 µM.
Output: Met

Task: Field: below-cutoff. Rule: recorded IC50 strictly less than 60 µM. Subject: CCn1nc(C2(C)CCNCC2)cc1O
Output: Not met

Task: Confirm or reject: IC50 of CCC1(c2cc(O)n(C)n2)CCNCC1 lies strictly below 60 µM
Output: Not met

Task: In the record for CC1(c2cc(O)[nH]n2)CCNCC1 , is IC50 less than 60 µM?
Output: Not met

Task: Dear colleague, could you confirm whether IC50 of CCCn1nc(C2(C)CCNCC2)cc1O falls below 60 µM? Thanks.
Output: Met

Task: IC50 strictly < 60 µM for this compound? CCCn1nc(O)cc1C1(C)CCNCC1
Output: Met

Task: Please determine if CC(C)n1nc(O)cc1C1(C)CCNCC1 is below 60 µM in terms of IC50.
Output: Not met

* * *

Kindly state IC50 for each of the entries shown.
Number in µM, nothing else.

Task: Give IC50 (SPF45-UHM (Homo sapiens, UniProt Q96I25)) of the following compound: CCCn1nc(O)cc1C1(C)CCNCC1
Output: 362

Task: Return IC50 measured with SPF45-UHM (Homo sapiens, UniProt Q96I25) given this compound: CCn1nc(C2(C)CCNCC2)cc1O
Sequence (Q96I25 306-385 limits assumed): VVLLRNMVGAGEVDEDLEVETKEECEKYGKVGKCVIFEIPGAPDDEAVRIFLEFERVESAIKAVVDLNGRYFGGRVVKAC
Output: 958

Task: Give IC50 (SPF45-UHM (Homo sapiens, UniProt Q96I25)) of the following compound: Cn1nc(O)cc1C1(C)CCNCC1
Output: 473

Task: Recall the recorded IC50 for Cn1nc(C2(C)CCNCC2)cc1O with SPF45-UHM (Homo sapiens, UniProt Q96I25) and state it.
Output: 748

* * *

- EXPERIMENTAL TARGET: U2AF1-UHM (Homo sapiens)
- Construct: we screened the CCG fragment library from University of Michigan against the U2AF1-UHM domain using the Thermal Shift Assay (TSA)
- Sequence (Q01081 65-147 limits assumed): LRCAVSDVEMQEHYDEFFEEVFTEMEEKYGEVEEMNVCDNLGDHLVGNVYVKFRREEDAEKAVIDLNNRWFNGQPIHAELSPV
- METHOD: HTRF assay, inhibition of binding between U2AF1-UHM and U2AF2-ULM
- SETUP CONDITIONS: representative titration curves, Fig. 2B; read-out: IC50 against U2AF1-UHM
ENDPOINT: pIC50
# pIC50 = -log10(concentration in molar units)

Task: Reported pIC50, compound CC1(c2cc(O)[nH]n2)CCNCC1 : ____
Output: 3.48

Task: Look up pIC50 for this compound: Cn1nc(C2(C)CCNCC2)cc1O
Output: 4.23

* * *

- EXPERIMENTAL TARGET: RBM39-UHM (Homo sapiens, UniProt Q14498)
- Sequence (Q14498 445-508 limits assumed): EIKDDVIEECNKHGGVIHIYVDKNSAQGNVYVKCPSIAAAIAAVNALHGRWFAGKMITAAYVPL
I'd be grateful if you could share measured IC50 for these entries.

Task: Data request, read-out IC50, for CCCn1nc(C2(C)CCNCC2)cc1O
Output: 310 µM

Task: // lookup IC50 for CCCn1nc(O)cc1C1(C)CCNCC1
Output: 386 µM

Task: Field request: IC50 | item: CC1(c2cc(O)[nH]n2)CCNCC1
Output: 686 µM

Task: Given the entry Cn1nc(O)cc1C1(C)CCNCC1 , report its measured IC50.
Output: > 1000 µM

Task: Returns the measured IC50 for the input compound. Input: Cn1nc(C2(C)CCNCC2)cc1O
Output: 221 µM

Task: Give the measured IC50 of CC(C)n1nc(O)cc1C1(C)CCNCC1 .
Output: 395 µM

Task: Look up IC50: CCn1nc(C2(C)CCNCC2)cc1O
Output: > 1000 µM

Task: Entry CCC1(c2cc(O)n(C)n2)CCNCC1 has what IC50?
Output: > 1000 µM

* * *

- EXPERIMENTAL TARGET: PUF60-UHM (Homo sapiens, UniProt Q9UHX1)
- Sequence (Q9UHX1 462-549 limits assumed): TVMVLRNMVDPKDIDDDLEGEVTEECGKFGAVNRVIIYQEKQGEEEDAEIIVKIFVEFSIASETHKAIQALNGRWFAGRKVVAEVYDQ
ENDPOINT: IC50 (µM)
Kindly provide the numeric value in µM only, without the unit symbol.

Task: Query (compound): CCCn1nc(C2(C)CCNCC2)cc1O [7c] ; field requested: IC50
Output: 541

Task: Field request: IC50 | item: Cn1nc(O)cc1C1(C)CCNCC1 [8a]
Output: 550
